# Tested on: MDA-MB-231
# ASSAY_INFO: NCI tumour cell line growth inhibition, 48 h
The source made the active and inactive calls. Rule as the data show it: active = GI50 up to about 1.1 µM and inactive = higher.

COMPOUND: N#CNC(=N)Nc1ccc(Cl)cc1
TARGET_UNDER_TEST: MDA-MB-231
GI50: > 100 µM (inactive)

COMPOUND: Cc1ccc(O)c(C(c2ccc([N+](=O)[O-])cc2)c2cc(C)ccc2O)c1
TARGET_UNDER_TEST: MDA-MB-231
GI50: 12 µM (inactive)

COMPOUND: O=c1c2c(oc3ccccc13)-c1ccccc1OC2
TARGET_UNDER_TEST: MDA-MB-231
GI50: 21.1 µM (inactive)

COMPOUND: O=C(CCC(NC(=O)OCc1ccccc1)C(=O)OCc1ccccc1)Nc1cccc(OCc2ccccc2)c1 (stereo unspecified)
TARGET_UNDER_TEST: MDA-MB-231
GI50: 25.4 µM (inactive)

COMPOUND: Cn1c(=O)c2[nH]c(/N=N/N3CCN(CCO)CC3)nc2n(C)c1=O
TARGET_UNDER_TEST: MDA-MB-231
GI50: > 100 µM (inactive)

COMPOUND: COc1cccc(/C=C2/S/C(=N/Nc3nc(C)c(C(C)=O)s3)NC2=O)c1O
TARGET_UNDER_TEST: MDA-MB-231
GI50: 18.9 µM (inactive)

COMPOUND: CS(=O)(=O)Nc1ccc2ccccc2c1-c1c(NS(C)(=O)=O)ccc2ccccc12
TARGET_UNDER_TEST: MDA-MB-231
GI50: > 25 µM (inactive)

COMPOUND: CCNC1CC(C(C)(C)NCC)CC=C1C (stereo unspecified)
TARGET_UNDER_TEST: MDA-MB-231
GI50: > 100 µM (inactive)

COMPOUND: Cc1ccc2ccc(=O)oc2c1
TARGET_UNDER_TEST: MDA-MB-231
GI50: > 100 µM (inactive)

COMPOUND: C=CC1(c2ccc3ccccc3c2)OCC(CC)(CC)CO1
TARGET_UNDER_TEST: MDA-MB-231
GI50: 15.8 µM (inactive)

COMPOUND: CC1(C)[C@H](C(=O)O)N2C(=O)[C@@H](NS(=O)(=O)c3ccc([N+](=O)[O-])cc3)[C@H]2S1(=O)=O
TARGET_UNDER_TEST: MDA-MB-231
GI50: > 100 µM (inactive)

* * *

# Tested on: Hs-578T
# ASSAY_INFO: NCI tumour cell line growth inhibition, 48 h
Activity calls are given as the source filed them. No stated cut-off is given here; in the data, active = GI50 up to about 1.1 µM and inactive = higher.

COMPOUND: COc1cc2c(cc1OCc1ccccc1)NC(=O)[C@@H]1CCCN1C2=O
GI50: > 100 µM (inactive)

COMPOUND: CC(C)(C)OC(=O)N1CCC2(CC1)C(=O)NCN2c1ccccc1
GI50: > 100 µM (inactive)

COMPOUND: CN(C)/C=C/c1ccnc2c1C(=O)c1ccccc1C2=O
GI50: 2.78 µM (inactive)

COMPOUND: Cc1ccc(C)c2c1NC(=O)/C2=N\Nc1ccccc1[N+](=O)[O-]
GI50: 35.7 µM (inactive)

COMPOUND: COc1nc(C(Cl)(Cl)Cl)c(Cl)c(OC)c1Cl [PENCLOMEDINE]
GI50: 33.3 µM (inactive)

COMPOUND: CC1(C)[C@H](C(=O)O)N2C(=O)[C@@H](NS(=O)(=O)c3ccc([N+](=O)[O-])cc3)[C@H]2S1(=O)=O
GI50: > 100 µM (inactive)
